Attribution: patent US20240207432A1

Target: T1, full length human TROP2 on 293F-TROP2 cells (human, UniProt P09758 27-323)
T1 construct: also called 293F-TROP2 cells (clone ID #3A8); cell surface TROP2
T1 sequence: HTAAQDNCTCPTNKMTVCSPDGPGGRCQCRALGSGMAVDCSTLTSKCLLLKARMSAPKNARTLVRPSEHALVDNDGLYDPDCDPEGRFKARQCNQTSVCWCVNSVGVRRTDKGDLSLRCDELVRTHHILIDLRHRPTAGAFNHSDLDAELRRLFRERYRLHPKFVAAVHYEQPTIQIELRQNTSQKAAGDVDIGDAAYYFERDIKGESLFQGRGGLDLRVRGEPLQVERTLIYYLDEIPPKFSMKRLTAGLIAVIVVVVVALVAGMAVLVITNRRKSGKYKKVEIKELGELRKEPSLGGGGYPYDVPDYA
Test: FACS on 293F-TROP2 cells, MFI
Property measured: EC50 (nM)
Answers are plain numbers, in nM.

Lookup: Reported EC50, binder benchmark (in house prepared sacituzumab) (antibody, human IgG1, kappa, V domains shown, also called BM; BM1) VH: SVQLQQSGSELKKPGASVKVSCKASGYTFTNYGMNWVKQAPGQGLKWMGWINTYTGEPTYTDDFKGRFAFSLDTSVSTAYLQISSLKADDTAVYFCARGGFGSSYWYFDVWGQGSLVTVSS VL: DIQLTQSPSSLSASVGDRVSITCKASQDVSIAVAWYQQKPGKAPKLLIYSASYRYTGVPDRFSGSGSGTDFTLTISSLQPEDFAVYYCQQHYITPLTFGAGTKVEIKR : ____
Found: 1.14
